Consider the following compounds; for each one, report its pIC50.
Measured target: SARM1 (50-724) (Homo sapiens)
Sequence (Q6SZW1 50-724): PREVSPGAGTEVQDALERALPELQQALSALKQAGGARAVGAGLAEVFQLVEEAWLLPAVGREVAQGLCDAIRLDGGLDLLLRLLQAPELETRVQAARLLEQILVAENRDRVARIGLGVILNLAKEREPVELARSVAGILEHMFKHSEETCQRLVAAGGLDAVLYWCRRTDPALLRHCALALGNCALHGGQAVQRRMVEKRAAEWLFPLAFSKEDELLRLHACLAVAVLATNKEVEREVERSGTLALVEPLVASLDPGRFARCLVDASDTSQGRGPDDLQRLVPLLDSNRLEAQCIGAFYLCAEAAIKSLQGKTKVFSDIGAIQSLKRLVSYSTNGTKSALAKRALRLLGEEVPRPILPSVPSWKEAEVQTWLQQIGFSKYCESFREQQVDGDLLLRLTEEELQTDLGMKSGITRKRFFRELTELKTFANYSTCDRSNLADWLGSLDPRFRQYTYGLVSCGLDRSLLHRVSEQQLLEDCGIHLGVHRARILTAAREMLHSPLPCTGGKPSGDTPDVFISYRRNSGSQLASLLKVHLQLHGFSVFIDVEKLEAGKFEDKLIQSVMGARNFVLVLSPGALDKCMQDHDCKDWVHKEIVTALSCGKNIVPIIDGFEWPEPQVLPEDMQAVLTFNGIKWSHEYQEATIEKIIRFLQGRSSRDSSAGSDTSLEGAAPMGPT
pIC50: −log10 of the molar value.

Tell me its pIC50 given `CC(=O)c1ccc2[nH]c(-c3nncn3-c3ccc(F)c(F)c3Cl)nc2c1` as the entry.
≥ 7.00

Tell me its pIC50 given `CN(CCC(N)=O)c1cc(F)c2[nH]c(-c3nncn3-c3cnccc3C(F)(F)F)nc2c1` as the entry.
≥ 7.00

Tell me its pIC50 given `Cn1cc(Cl)c(-n2cnnc2-c2nc3cc(C(F)(F)F)ccc3[nH]2)cc1=O` as the entry.
6.30 to 7.00

Tell me its pIC50 given `Fc1cccc(-n2c(CCc3nccs3)nnc2-c2nc3cc(C(F)(F)F)ccc3[nH]2)c1Cl` as the entry.
6.30 to 7.00

Tell me its pIC50 given Fc1cc([C@@H]2[C@@H]3COC[C@@H]32)cc2nc(-c3nncn3-c3cnccc3C(F)(F)F)[nH]c12 (single isomer, unassigned) as the entry.
≥ 7.00

Tell me its pIC50 given FC(F)(F)c1ccc2[nH]c(N3CCSCC3c3ccccc3)nc2c1 (stereo not drawn) as the entry.
< 6.00

---

Consider the following compounds; for each one, report its IC50.
Measured target: SARM1 (50-724) (Homo sapiens, UniProt Q6SZW1)

Tell me its IC50 given CS(=O)(=O)c1c(Br)ccc2[nH]c(-c3nncn3-c3cccc(Cl)c3Cl)nc12 [Example 95] as the entry.
> 1000 nM

Tell me its IC50 given OCc1cc(-n2cnnc2-c2nc3cc(C(F)(F)F)ccc3[nH]2)c(OC(F)(F)F)cn1 [Compound 253] as the entry.
≤ 100 nM

Tell me its IC50 given O=c1cc(-c2nc3cc(C(F)(F)F)ccc3[nH]2)c(-c2cccc(Cl)c2Cl)c[nH]1 [Example 40] as the entry.
≤ 100 nM

Tell me its IC50 given Cc1cc(C(F)(F)F)c(-n2cnnc2-c2nc3cc(C(F)(F)F)ccc3[nH]2)nn1 [Compound 391] as the entry.
100 to 500 nM

Tell me its IC50 given Cc1ccc2[nH]c(-c3ccc(C#N)n3C3CCCC3)nc2c1 [Compound 19] as the entry.
100 to 500 nM

Tell me its IC50 given OCCOc1cc(-n2cnnc2-c2nc3cc(C(F)(F)F)ccc3[nH]2)c(OC(F)(F)F)cc1F [Compound 263] as the entry.
≤ 100 nM

Tell me its IC50 given FC(F)(F)c1ccc2[nH]c(-c3nccn3-c3cccc(Cl)c3Cl)nc2c1 [Example 57] as the entry.
100 to 500 nM

Tell me its IC50 given CC1(C)CC1c1cc(F)c2[nH]c(-c3nncn3-c3cnccc3C(F)(F)F)nc2c1 (stereo not drawn) [Compound 347] as the entry.
≤ 100 nM

Tell me its IC50 given Fc1cc(OCC(F)F)cc2nc(-c3nncn3-c3cnccc3C(F)(F)F)[nH]c12 [Compound 331] as the entry.
≤ 100 nM

---

Consider the following compounds; for each one, report its IC50.
Measured target: SARM1 (50-724) (Homo sapiens)
Sequence (Q6SZW1 50-724): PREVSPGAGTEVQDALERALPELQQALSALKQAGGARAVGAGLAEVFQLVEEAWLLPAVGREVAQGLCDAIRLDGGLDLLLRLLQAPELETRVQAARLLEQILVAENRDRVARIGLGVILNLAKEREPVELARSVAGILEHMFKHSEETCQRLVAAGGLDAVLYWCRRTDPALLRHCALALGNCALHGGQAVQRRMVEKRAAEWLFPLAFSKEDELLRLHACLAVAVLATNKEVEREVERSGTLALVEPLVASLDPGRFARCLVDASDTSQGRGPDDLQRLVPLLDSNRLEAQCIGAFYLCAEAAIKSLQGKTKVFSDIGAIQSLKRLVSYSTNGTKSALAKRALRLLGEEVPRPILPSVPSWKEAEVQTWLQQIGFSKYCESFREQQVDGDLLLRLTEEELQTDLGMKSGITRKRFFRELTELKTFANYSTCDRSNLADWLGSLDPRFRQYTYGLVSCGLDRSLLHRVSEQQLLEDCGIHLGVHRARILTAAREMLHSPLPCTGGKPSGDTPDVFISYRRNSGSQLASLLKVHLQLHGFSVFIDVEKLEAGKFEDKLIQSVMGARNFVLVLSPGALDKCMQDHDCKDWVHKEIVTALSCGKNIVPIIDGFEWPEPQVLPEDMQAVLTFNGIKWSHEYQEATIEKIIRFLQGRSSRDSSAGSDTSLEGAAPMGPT

Tell me its IC50 given `Cc1ccc2[nH]c(-c3nncn3C3CCCC3)nc2c1` as the entry.
> 1000 nM

Tell me its IC50 given `OCCc1nnc(-c2nc3cc(C(F)(F)F)ccc3[nH]2)n1-c1cccc(Cl)c1Cl` as the entry.
≤ 100 nM

Tell me its IC50 given `[2H]c1cncc(-n2c([2H])nnc2-c2nc3c(F)c(C4([2H])CC4)ccc3[nH]2)c1C(F)(F)F` as the entry.
≤ 100 nM

Tell me its IC50 given C[S+]([O-])Cc1nnc(-c2nc3cc(C(F)(F)F)ccc3[nH]2)n1-c1cccc(Cl)c1Cl (single isomer, unassigned) as the entry.
≤ 100 nM

Tell me its IC50 given `Fc1cccc(-n2cnnc2-c2nc3cc(C(F)(F)F)ccc3[nH]2)c1F` as the entry.
≤ 100 nM

Tell me its IC50 given `Fc1cc(C(F)(F)F)cc2nc(-c3nncn3-c3cc(Cl)ncc3OC(F)(F)F)[nH]c12` as the entry.
≤ 100 nM

Tell me its IC50 given `Fc1cc(C(F)(F)F)cc2nc(-c3nncnc3-c3cnccc3C(F)(F)F)[nH]c12` as the entry.
≤ 100 nM

Tell me its IC50 given `Fc1cccc(-n2c(CN3CC4(CCO4)C3)nnc2-c2nc3cc(C(F)(F)F)ccc3[nH]2)c1Cl` as the entry.
≤ 100 nM

Tell me its IC50 given `Cc1ccc2[nH]c(-c3cnccc3-c3cccc(Cl)c3Cl)nc2c1` as the entry.
≤ 100 nM

Tell me its IC50 given `Cc1nccc(C(F)(F)F)c1-n1cnnc1-c1nc2cc(C(F)(F)F)ccc2[nH]1` as the entry.
≤ 100 nM

Tell me its IC50 given `FC(F)(F)c1ccc2[nH]c(-c3scnc3-c3cccc(Cl)c3Cl)nc2c1` as the entry.
500 to 1000 nM

Tell me its IC50 given CC1(O)CC(Cc2nnc(-c3nc4cc(C(F)(F)F)ccc4[nH]3)n2-c2cccc(F)c2Cl)C1 (stereo not shown) as the entry.
≤ 100 nM

Tell me its IC50 given `N#CC1(c2ccc3[nH]c(-c4nncn4-c4cccc(F)c4Cl)nc3c2)COC1` as the entry.
≤ 100 nM

Tell me its IC50 given `CSc1c(Br)ccc2[nH]c(-c3nncn3-c3cccc(Cl)c3Cl)nc12` as the entry.
100 to 500 nM

Tell me its IC50 given `FC(F)(F)c1cnc2[nH]c(-c3nncn3-c3cnccc3C(F)(F)F)cc2c1` as the entry.
≤ 100 nM

Tell me its IC50 given `Cc1ccc2[nH]c(-c3cc(CO)cn3C3CCCC3)nc2c1` as the entry.
500 to 1000 nM

Tell me its IC50 given `N#Cc1c(Cl)ccc2[nH]c(-c3nncn3-c3cccc(Cl)c3Cl)nc12` as the entry.
100 to 500 nM

Tell me its IC50 given `Fc1ccc(-n2cnnc2-c2nc3cc(C(F)(F)F)cnc3[nH]2)c(Cl)c1F` as the entry.
≤ 100 nM

Tell me its IC50 given COC(C)c1ccc2[nH]c(-c3nncn3-c3ccc(F)c(F)c3Cl)nc2c1 (stereo not shown) as the entry.
≤ 100 nM

Tell me its IC50 given `COc1cc(-n2cnnc2-c2nc3cc(C(F)(F)F)ccc3[nH]2)c(OC(F)(F)F)cn1` as the entry.
≤ 100 nM

Tell me its IC50 given COC(C)(c1ccc2[nH]c(-c3nncn3-c3ccc(F)c(F)c3Cl)nc2c1)C1COC1 (stereo not shown) as the entry.
100 to 500 nM

Tell me its IC50 given `CNc1ccc(Cl)c(-n2cnnc2-c2nc3cc(C(F)(F)F)ccc3[nH]2)n1` as the entry.
≤ 100 nM

Tell me its IC50 given `Cc1ccc2[nH]c(-n3c(-c4cccc(Cl)c4Cl)noc3=O)nc2c1` as the entry.
> 1000 nM

Tell me its IC50 given `Cn1cc(-c2ccccc2Cl)c(-c2nc3cc(C(F)(F)F)ccc3[nH]2)cc1=O` as the entry.
100 to 500 nM

Tell me its IC50 given CC1CC1c1cc(F)c2[nH]c(-c3nncn3-c3cnccc3C(F)(F)F)nc2c1 (stereo not shown) as the entry.
≤ 100 nM
